experimental.system: glucagon receptor (human, UniProt P47871 26-477)
Sequence (P47871 26-477): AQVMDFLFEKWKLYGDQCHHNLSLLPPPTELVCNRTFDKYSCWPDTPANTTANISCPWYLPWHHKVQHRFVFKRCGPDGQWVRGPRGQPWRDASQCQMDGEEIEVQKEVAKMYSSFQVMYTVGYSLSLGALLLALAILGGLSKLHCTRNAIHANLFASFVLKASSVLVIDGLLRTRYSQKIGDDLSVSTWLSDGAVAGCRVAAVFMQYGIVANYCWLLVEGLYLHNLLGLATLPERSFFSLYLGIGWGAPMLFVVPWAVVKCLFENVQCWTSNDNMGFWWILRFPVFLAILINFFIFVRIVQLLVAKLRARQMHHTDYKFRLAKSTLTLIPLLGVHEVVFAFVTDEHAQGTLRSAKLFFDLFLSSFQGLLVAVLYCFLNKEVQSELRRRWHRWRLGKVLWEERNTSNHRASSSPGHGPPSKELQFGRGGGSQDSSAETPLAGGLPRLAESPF
method.summary: cell-based or functional assay
Starred links: 1 amine or outer side, 2 acyl side, 3 side chain; linkers in the order of their positions; H or OH if unused. Non-standard residues stand in square brackets, D forms with d. Groups on a side chain read outwards from the residue. Primed or numbered codes have the meaning given here. No end group written: not given here. *: point of attachment. γGlu = O=C(O)[C@H](CCC(=O)[*:2])N[*:1]; Stearoyl = CCCCCCCCCCCCCCCCCC(=O)*; αMeF = C[C@](N)(Cc1ccccc1)C(=O)O; αMeK = C[C@](N)(CCCCN)C(=O)O; αMeS = C[C@](N)(CO)C(=O)O; PEG2′ = not defined here; Aib = CC(C)(N)C(=O)O
Rule: Primary assay EC50 (cAMP), n2 of 30 nM or more gives fulfilled; anything lower gives not fulfilled.

Example entries and their recorded answers appear below.
[
  {
    "binder": "H[Aib]EGS[αMeF]TSDV[αMeS]S[αMeF]LEGEAAAEFIK([PEG2′-PEG2′-γGlu-Stearoyl])WVVEGG-NH2 [SEQ ID NO 69]",
    "cat": "not fulfilled"
  },
  {
    "binder": "H[Aib]EGS[αMeF]TSDV[αMeS]S[αMeF]LEGEAAEEFIK([PEG2′-PEG2′-γGlu-Stearoyl])WVVEGG-NH2 [SEQ ID NO 66]",
    "cat": "not fulfilled"
  },
  {
    "binder": "HXEGTFTSDVSSYLEGQAAKEFIAWLVKGR (Aib 2; α-MeSer 8; C-terminal amide) [SEQ ID NO 19]",
    "cat": "fulfilled"
  },
  {
    "binder": "H[Aib]EGS[αMeF]TDDV[αMeS]S[αMeF]LEGEAAK([PEG2′-PEG2′-γGlu-Stearoyl])E[αMeF]IA[αMeF]VV[αMeK]GG-NH2 [SEQ ID NO 36]",
    "cat": "not fulfilled"
  },
  {
    "binder": "HXEGTFTSDVXSYLEGQAAKEFIAWLVKGR (Aib 2; Aib 11; C-terminal amide) [SEQ ID NO 22]",
    "cat": "fulfilled"
  }
]

In: Reported Primary assay EC50 (cAMP), n2 at or above 30 nM? HXEGTFTSDVSSYLEGQAAKEFIAWLVKGRK (Aib 2; K(ε-(PEG)2-(PEG)2-γE-Stearate) after R30; C-terminal amide) [SEQ ID NO 6]
Out: not fulfilled

In: Reported Primary assay EC50 (cAMP), n2 at or above 30 nM? H[Aib]EGSFTSDV[αMeS]S[αMeF]LEGEAAK([PEG2′-PEG2′-PEG2′-Stearoyl])E[αMeF]IA[αMeF]VV[αMeK]GG-NH2 [SEQ ID NO 51]
Out: not fulfilled

In: Reported Primary assay EC50 (cAMP), n2 at or above 30 nM? H[Aib]EGS[αMeF]TSDVSS[αMeF]LEGEAAK([PEG2′-PEG2′-γGlu-Stearoyl])E[αMeF]IA[αMeF]VVKGG-NH2 [SEQ ID NO 40]
Out: not fulfilled

In: Reported Primary assay EC50 (cAMP), n2 at or above 30 nM? H[Aib]EGS[αMeF]TSDV[αMeS]S[αMeF]LEGEAAK([PEG2′-PEG2′-γGlu-Stearoyl])E[αMeF]IAWVV[αMeK]GG-NH2 [SEQ ID NO 49]
Out: not fulfilled

In: Reported Primary assay EC50 (cAMP), n2 at or above 30 nM? H[Aib]EGS[αMeF]TSDVSS[αMeF]LEGEAAK([PEG2′-PEG2′-γGlu-Stearoyl])E[αMeF]IA[αMeF]VV[αMeK]GG-NH2 [SEQ ID NO 46]
Out: not fulfilled
